The measured values listed here are drawn from the supplement of paper PMC6755084.

B1: F1*; the commonest letter at each place (parent)
chain: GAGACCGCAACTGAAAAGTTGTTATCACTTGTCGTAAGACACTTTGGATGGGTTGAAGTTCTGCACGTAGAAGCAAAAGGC

- Variants of: B1
- test: fraction ligated after 30 min (ligated reads / total reads); higher = more ligase activity
- condition_notes: with F1*sub RNA substrate (template-directed ligation), 42 °C
# if value of fraction ligated reaches 0.8, tag condition met; if it stays below, tag condition not met

A selection of reference data follows.
// inclusive: fraction ligated at least 0.8? input: A27T C40A
condition met

// inclusive: fraction ligated at least 0.8? input: G31T G46C
condition not met

// inclusive: fraction ligated at least 0.8? input: A27T G50T
condition not met

// inclusive: fraction ligated at least 0.8? input: C26T T45G
condition not met

// inclusive: fraction ligated at least 0.8? input: T30G C42A
condition met

Others:
// inclusive: fraction ligated at least 0.8? input: G47C A48T
condition not met

// inclusive: fraction ligated at least 0.8? input: T25A G46C
condition not met

// inclusive: fraction ligated at least 0.8? input: G50A A57C
condition not met

// inclusive: fraction ligated at least 0.8? input: A36G T44G
condition met

// inclusive: fraction ligated at least 0.8? input: G50T G55A
condition not met

// inclusive: fraction ligated at least 0.8? input: A24C T29C
condition not met

// inclusive: fraction ligated at least 0.8? input: A39C A56C
condition not met
